# assay-method-text: yeast display, Sf9 membrane polyspecificity reagent, FACS + sequencing; frameworks hold sequencing errors
endpoint-label: polyreactivity (PSR sort gate)

Would you please look over these solved cases?
| sequence-code | polyreactivity (PSR sort gate) |
| --- | --- |
| QVQLVESGVGLVQAGGSLRLSCAASGFTFPSYTMGWYRQAPGKERELVAAITSGGITYYADSVKGRFTISRDNANYTVYLQMNSLKPEDTAVYYCAVVNFRTSVYYPYRTMDYWGQGTQVTVSS | high polyreactivity |
| QVQLVESGGGLVQAGGSLRLSSAASGRTFKYYGLGWYRQPPGKESQLVATISRSSSRTYYADSVKGRFTISRDNAKNTVYFKMNSLKPEDSAVYYCASLAPRSYDYDYWGKGTQVTVSS | high polyreactivity |
| QVQLVESGGGLVQAGGSLRLSCAASGSIFQPYAMGWYRQAPGKERELVAAINGRGGSTHYADSVKGRFTISRDNAKNTVYLQMNSLKPEDTAVYYCAARYYRDYRWYTYAYDYWGQGTQVTVSS | high polyreactivity |
| QVQLVESGGGLVQAGGSLRLSCAASGSTFVIYTMGWYRQAPVKERELVAAISWSGGITRYADSVKGRFTISRDNAKNTVYLQMNSLKPEDTAVYYCNASQWPSRFDYWGQGTQVTVSS | low polyreactivity |
| QVQLVESGGGLVQAGGSLRLSCAASGSTSDINAMGWYRPAPGKERELVAVITFSGGTTNYADSVKGRFTISRDNAKNTVYLQMNSLKPEDTAVYYCNADTLTTTRRFNPYDYWGQGTQVTVSS | low polyreactivity |
| QVQLVESGGGLVHAGGSLRLSCAASGITFYDYDMGWYRQAPGKERELVATITSGGDTNYADSVKGRITISRDNAKNTVYLQMNSLKPEDTAVYYCAAGSFFRDSYARIYRWFYYWGQGTQVTVSS | low polyreactivity |
| QVQLVESGGGLVQAGGSLRLSCAASGRTFGYYAMGWYRQAPGKEREFVAAISSRGGSTRYADSVKGRFTISRDNAKNTVYLQMNSLKPEDTAVYYCNKGYYRHPDESDYGGQGTQVTVSS | high polyreactivity |
| QVQLVESGGGLVQAGGSLRLSCAASGSIFRYYVMGWYRQAPGKERELVAAISTGDRTNYADSVKGRFTISRDNAKNTVYLQMNILKPEDTAVYYCNADYVVGWARLEFNYWGQGTQVTVSS | low polyreactivity |
| QVQLVESGGGLVQAGGSLRLSCAASGRICTRNAMGWYRQAPGKERELVAAISWRGGSTYYADSVKGRFTISRDNAKNTVYLQMNSLKPEDTAVYYCNAYFLSQYQSAYRDDYWGQGTQVTVSS | high polyreactivity |
| QVQLVESGGGLVQAGGSLRLSCAASGSIFWPYTMGWYRQAPGKEWELVAAITSTDSTDYADSVKGRFTISRDNAKNTVYLQMNSLKPEDTAVYYCNADYQSRTGSVIYTAHPYDYWGQGTQVTVSS | low polyreactivity |

`QVQLVESGGGLVQAGGSLRLSCAASGFTFYSNAMGWYRQAPGKERELVAAITGRGGRTYYADSVKGRFTISRDNAKNTVYLQMNSLKPEDTAVYYCAAVYHVSTWGGRYYFRQGYDYWGQGTQVTVSS` has a reported polyreactivity (PSR sort gate) of high polyreactivity

`QVQLVESGGGLVQAGGSLRLSCAASGNTFYVNVMGWYRPAPGKEREFVAAISTRGVSTSYADSVKGRFTISRDNAKNTVYFQMNSLKPEDTAVYYGAARYYYRDWVGIISTYYYWGQGTQVTVSS` has a reported polyreactivity (PSR sort gate) of high polyreactivity

`QVQLVESGGGLVQAGGSLRLSCAASGSIFVWYAMGWYRQAPGKERELVARITSGGRTNYADSVKGRFTISRDNAKNTVYLQMNSLKPEDTAVYDCAAGRVSWSPYYYWGQGTQVNVSS` has a reported polyreactivity (PSR sort gate) of high polyreactivity

`QVQLVESGGGLVQAGGSLRLSCAASGFIFTTNAMGWYRQAPGKERELVAAITRSGGSTYADSVKGRFTLSRDNAKNTVYLQMNSLKPEETAVYYCNADGYFWGQGTQVTVSS` has a reported polyreactivity (PSR sort gate) of low polyreactivity

`QVQLVESGGGLVQAGGSLRLSCAASGSIFVHYAMGGYRQAPGKERELVAAISQRGGSTSYADSVKGRFTISRDNAKNTVYLQMNSLKPEDTAVYYCAAENWIGDYYWGQGTQVTVSS` has a reported polyreactivity (PSR sort gate) of low polyreactivity

`QVQLVESGGGLVQAGGSLRLICAASGRTFRYNAMGWYSQPHRKERELFAAINGGGSTYYADTVKGRFTISRDNAKNTVFLQMKSLKPEDTAVYYCAAANWRRNDYRYRFDYWGQGTQVTVSS` has a reported polyreactivity (PSR sort gate) of high polyreactivity

`QVHLVESGGGLVQAGGSLRLSCAASGFIRNYAMGWYRQAPGKERELVAAITSSGGRTYYADSVKGRFTISRDNAKNRVYLQMNSLKPEDTAVYYCAAPSRITTGPHREYDYWGQGTLVTVSS` has a reported polyreactivity (PSR sort gate) of high polyreactivity

`QVQLVESGGGLVQAGGSLRLSCAASGRTFWDYAMGWYRQAPGKEREFVAAINTSGGRTYYADSVKGRFTISRDNAKNTVYLQMNSLKPEDTAVYYCAARTRDRAYDSWGQGTQVTVSS` has a reported polyreactivity (PSR sort gate) of high polyreactivity

`QVQLVESGGGLLQAGGSLRLSCAASGSIFRRYAMGWYRQATGKERELVAAISRSGSSTYADSVKGRFTISRDNAKNTVYLQMNSLKPEDTAVYYCAASYAFLYYGYDSWGHGTQVTVSS` has a reported polyreactivity (PSR sort gate) of low polyreactivity

`QVQLVESGGGLVQAGGSLRLSCAASGRIFVENAMGWYRQAPRKERELVAAITSRGGSTYYADSVKGRFTISRDNAKNTVYLQMNSLKPEDTAVYYCNAGKYSRFLYDHNYWGQGTQVTVSS` has a reported polyreactivity (PSR sort gate) of high polyreactivity

`QVQLVESGGGLVQAGGSLRLSCAASGRTFRFNAMGWYRQAPGKERELVAAISSGGNTYYADSVKGRFTISRDNAKNTVYLQMNSLKPEDTAVYYCNTVYLYGTHDYWGQGTQVTVSS` has a reported polyreactivity (PSR sort gate) of low polyreactivity

src = the nanobody polyreactivity screen of Harvey et al. (2022)
